Source listed as patent US9695191B2.

- experimentSummary: Metabolic stability, human microsomes
- Assay type: in vitro ADME
- conditionDescription: % of the initial 0 minutes value at 60 min, 10 μM, 37° C.
Kindly state Metabolic Stability 60 min hum for each of the entries shown.
Express it in %; write the number only.

Prompt: Query (compound): CNC(=O)[C@H]1CCC(=O)N(C)CC(=O)N2C[C@@H](NC(=O)Cc3ccc4ccccc4c3)C[C@H]2COc2ccc(F)cc2C(=O)N1C [Ex. 93] ; field requested: Metabolic Stability 60 min hum
Completion: 1

Prompt: Query (compound): CN1C[C@H](NC(=O)OCc2ccccc2)C(=O)N(C)CC(=O)N2C[C@@H](NC(=O)Cc3c[nH]c4ccccc34)C[C@H]2COc2cccc(c2)C1=O [Ex. 200] ; field requested: Metabolic Stability 60 min hum
Completion: 12

Prompt: Query (compound): CN1CC(=O)N2C[C@H](NC(=O)CN3CCCC3)C[C@H]2COc2ccc(cc2)C(=O)N(C)[C@H](C(=O)NCc2ccncc2)CCC1=O [Ex. 266] ; field requested: Metabolic Stability 60 min hum
Completion: 100

Prompt: Query (compound): CN1CC(=O)N2C[C@H](NC(=O)CCc3ccncc3)C[C@H]2COc2ccc(cc2)C(=O)N(C)[C@H](C(=O)NCc2ccc3ccccc3c2)CCC1=O [Ex. 260] ; field requested: Metabolic Stability 60 min hum
Completion: 19

Prompt: Query (compound): CN(C)CC(=O)N[C@H]1C[C@H]2COc3ccc(F)cc3C(=O)N(C)[C@H](C(=O)NCCc3c[nH]c4ccccc34)CCC(=O)N(C)CC(=O)N2C1 [Ex. 16] ; field requested: Metabolic Stability 60 min hum
Completion: 31

Prompt: Query (compound): CN1CC(=O)N2C[C@@H](NC(=O)CCC(=O)O)C[C@H]2COc2ccc(F)cc2C(=O)N(C)[C@@H](C(=O)NCc2ccc3ccccc3c2)CCC1=O [Ex. 95] ; field requested: Metabolic Stability 60 min hum
Completion: 76

Prompt: Query (compound): CC(=O)N[C@H]1C[C@H]2COc3ccc(F)cc3C(=O)N(C)[C@H](C(=O)NCCc3c[nH]c4ccccc34)CCC(=O)N(C)CC(=O)N2C1 [Ex. 9] ; field requested: Metabolic Stability 60 min hum
Completion: 20
